This section presents compounds with their documented growth values.
system: SNB-75 CNS; assay: NCI-60 one-dose screen, 48 h (100 = growth as untreated, 0 = no growth, -100 = all killed); settings: 10 µM unless noted
The panel holds about 83,000 compounds, 20% with a hit somewhere; the sample as a whole holds those more often.
parameter: growth (%)

* O=C(CN1C(=O)NC2NC(=O)NC21)N/N=C/c1ccc(Cl)cc1Cl (centres undefined) | 82.8
* O=C(O)CCCc1cnc2c3sccc3nc(SCc3c(Cl)cccc3Cl)n12 | 16
* NC(CSC(c1ccccc1)(c1ccccc1)c1ccc2c(c1)OCO2)C(=O)O (centres undefined) | 30.8
* CC(C)=CC(=O)N[C@@H]1CC2CCC3C(CC[C@@]4(C)C3CC[C@@H]4C(C)N(C)C)[C@@]2(C)C[C@@H]1O (some centres undefined) | 56.1
* COc1ccc(C/C(C)=C(\c2ccc(O)cc2)c2ccc(OCCN3CCCC3)cc2)cc1 | 94.2
* COC1=CC(c2ccc[nH]2)=N/C1=C\c1[nH]c(C)c(CC(=O)OCc2ccccc2)c1C | -7.14
* Cc1ccc(Nc2nc(-c3ccc(F)cc3)c(C#N)c(=O)n2C)cc1 | 30
* CCOC(=O)NN1CC(O)=C(c2nc(-c3ccc(Br)cc3)cs2)C1=N | 101
* O=C1CCC(C(=O)NN(c2ccccc2)c2ccccc2)N1 (centres undefined) | 89.2
* Cc1ccc(S(=O)(=O)n2cc(C3C(Cl)C(=O)N3c3ccc(N4CCOCC4=O)cc3)c3ccccc32)cc1 (centres undefined) | 31.1
* COc1ccc(Nc2ncc(C(N)=O)c(NCCCNC(=O)C3CCC3)n2)cc1 | 49.7
* COc1ccc(Cc2nnc(Nc3nc4ccccc4s3)s2)cc1 | 92.2
* COC(=O)c1c2c(n3ccc(C)cc13)C(=O)c1ccccc1C2=O | 109
* C=CC1(C)C(O[Si](C)(C)C(C)(C)C)CC2C3OC(=O)NC31c1cccc3c1[C@H](C(=O)N3C)C2(C)C (some centres undefined) | 74.4
* COc1cccc(C(=O)OCC(O)C(=O)NC23CC4CC(CC(C4)C2)C3)c1 (centres undefined) | 95.2
* C#CCn1cnc2c(Nc3cccc(NC(=O)CCl)c3)ncnc21 | 33.2
* COc1ccc(/C=C/C(=O)c2ccc(Nc3nc(Nc4ccc(F)cc4)nc(Nc4ccc(Cl)cc4)n3)cc2)cc1 | 95.6
* C=CCOC(=O)C1=C(C)NC(=O)NC1c1c(Cl)n(C)c2ccccc12 (centres undefined) | 97.8
* CCOC(=O)c1ccc2c(c1)c1c(C)c3ccncc3c(C)c1n2C | 2.3
* S=c1ssnc1-c1cccs1 | 97.1
* CCN(CC)c1ccc(/C=N/NC(=O)c2ccc(Nc3ccnc(C(F)(F)F)c3)cc2)c(O)c1 | 37.1
* CCN(CC)c1ccc(N2C(=O)/C(=C/c3cccs3)SC2=S)cc1 | 93.9
* COc1ccc(NC(=O)c2ccc(C(=O)Nc3ccc(OC)cc3OC)cc2)c(OC)c1 | -39.3
* Cc1ccc2[nH]c(-c3ccc(S(C)(=O)=O)cc3)c(/C=N/N=C(N)N)c2c1 | 65.4
* O=C1/C(=C/c2ccccc2)CN(C(=O)c2cccnc2)C/C1=C\c1ccccc1 | 81.6
* CC(/C=C1\SC(=S)N(CC(=O)NC(Cc2c[nH]c3ccccc23)C(=O)O)C1=O)=C\c1ccccc1 (centres undefined) | 87.2
* N#Cc1c(Nc2ccc(F)cc2)n[nH]c1-c1cccs1 | 85.6
* O=C1NC(=C(Cl)Cl)/C(=N/S(=O)(=O)N2CCCCC2)N1 | 93.5
* Cc1c2cnccc2c(C)c2c1c1cc(C3OCCCO3)ccc1n2C | -23
